Recorded values, source paper PMC9505425.

# Tested on: H-1299 cells
# assay-details: MTT cytotoxicity assay, H-1299
# Format: cell-based, human
# setup-conditions: Homo sapiens, NCI-H1299; MTT, 48 h
experimental-endpoint: IC50 (µM)
Hi! Could you send only the number? It should be in µM, unit omitted.

Qu. Look up IC50 for this compound: `Cc1ccc(-n2c(-c3ccc(C(=O)NN)cc3)cc3c2cc(-c2ccc(C(=O)NN)cc2)n3-c2ccc(C)cc2)cc1`
Ans. 6.89

Qu. Look up IC50 for this compound: `CCN(CC)c1ccc(/C=N/NC(=O)c2ccc(-c3cc4c(cc(-c5ccc(C(=O)N/N=C/c6ccc(N(CC)CC)cc6O)cc5)n4-c4ccc(C)cc4)n3-c3ccc(C)cc3)cc2)c(O)c1`
Ans. 8.94

Qu. Look up IC50 for this compound: `Cc1ccc(-n2c(-c3ccc(C(=O)N/N=C/c4ccccc4O)cc3)cc3c2cc(-c2ccc(C(=O)N/N=C/c4ccccc4O)cc2)n3-c2ccc(C)cc2)cc1`
Ans. 14.6

----------
# Test system: BT-20 cells
# assay-details: MTT cytotoxicity assay, BT-20
# Format: cell-based, human
# setup-conditions: Homo sapiens, BT-20, 48 h, BT-20, 500 nM, repeats, read-out: Cell viability %
experimental-endpoint: viability at 0.5 µM (%)
Hi! Could you send only the number? It should be in %, unit omitted.

Qu. Look up viability at 0.5 µM for this compound: `COc1cccc(/C=N/NC(=O)c2ccc(-c3cc4c(cc(-c5ccc(C(=O)N/N=C/c6cccc(OC)c6O)cc5)n4-c4ccc(C)cc4)n3-c3ccc(C)cc3)cc2)c1O`
Ans. 97.4

Qu. Look up viability at 0.5 µM for this compound: `Cc1ccc(-n2c(-c3ccc(C(=O)N/N=C/c4ccc(O)cc4O)cc3)cc3c2cc(-c2ccc(C(=O)N/N=C/c4ccc(O)cc4O)cc2)n3-c2ccc(C)cc2)cc1`
Ans. 77.8

Qu. Look up viability at 0.5 µM for this compound: `CCN(CC)c1ccc(/C=N/NC(=O)c2ccc(-c3cc4c(cc(-c5ccc(C(=O)N/N=C/c6ccc(N(CC)CC)cc6O)cc5)n4-c4ccc(C)cc4)n3-c3ccc(C)cc3)cc2)c(O)c1`
Ans. 89.8

----------
# Tested on: HF-P4 cells
# assay-details: MTT cytotoxicity assay, HF-P4
# Format: cell-based, human
# setup-conditions: Homo sapiens; MTT, 48 h
experimental-endpoint: IC50

Qu. Look up IC50 for this compound: `COc1cccc(/C=N/NC(=O)c2ccc(-c3cc4c(cc(-c5ccc(C(=O)N/N=C/c6cccc(OC)c6O)cc5)n4-c4ccc(C)cc4)n3-c3ccc(C)cc3)cc2)c1O`
Ans. > 20 µM

Qu. Look up IC50 for this compound: `Cc1ccc(-n2c(-c3ccc(C(=O)N/N=C/c4ccc(O)cc4O)cc3)cc3c2cc(-c2ccc(C(=O)N/N=C/c4ccc(O)cc4O)cc2)n3-c2ccc(C)cc2)cc1`
Ans. 13.1 µM

Qu. Look up IC50 for this compound: `Cc1ccc(-n2c(-c3ccc(C(=O)NN)cc3)cc3c2cc(-c2ccc(C(=O)NN)cc2)n3-c2ccc(C)cc2)cc1`
Ans. > 20 µM

Qu. Look up IC50 for this compound: `Cc1ccc(-n2c(-c3ccc(C(=O)N/N=C/c4cc(F)ccc4O)cc3)cc3c2cc(-c2ccc(C(=O)N/N=C/c4cc(F)ccc4O)cc2)n3-c2ccc(C)cc2)cc1`
Ans. > 20 µM

Qu. Look up IC50 for this compound: `Cc1ccc(-n2c(-c3ccc(C(=O)N/N=C/c4ccccc4O)cc3)cc3c2cc(-c2ccc(C(=O)N/N=C/c4ccccc4O)cc2)n3-c2ccc(C)cc2)cc1`
Ans. 16.4 µM

Qu. Look up IC50 for this compound: `CCN(CC)c1ccc(/C=N/NC(=O)c2ccc(-c3cc4c(cc(-c5ccc(C(=O)N/N=C/c6ccc(N(CC)CC)cc6O)cc5)n4-c4ccc(C)cc4)n3-c3ccc(C)cc3)cc2)c(O)c1`
Ans. > 20 µM
